# test protocol: yeast display, Sf9 membrane polyspecificity reagent, FACS + sequencing; frameworks hold sequencing errors
attribute measured: polyreactivity (PSR sort gate)

sequence_content=QVQLVESGGGLVQAGGSLRLSCAASGFIFYDYDMGWYRQAPGKERELVAAITYSGGSTYYADSVKGRFTISRDNAKNTVYLQMNSLKPEDTAVYYCAAVKSRYAEAVDYYYWGQGTQVTVSS meas_value="low polyreactivity"
sequence_content=QVQLVESGGGLVQAGGSLRLSCAASGRTFEYYAMGWYRQAPGKERELVAAIDSGGSTNYADSVKGRFTISRDNAKNTVYLQMNSLKPEDTAVYYCATEVDQNYNYDYWGQGTQVTVSS meas_value="low polyreactivity"
sequence_content=QVQRVESGGGLVQAGRSLRLSCAASGTIFGPYAMGWYRQAPGKERELVAAITIGRDNTYYADSVKGRFTISRDNAKNTVYLQINSLKPEDTAVYYCAAKYYGGKPHYYEYYYWGQGTQVTVSS meas_value="low polyreactivity"
sequence_content=QVQLVESGGGLVQAGGSLRLSCAASGSIFKDYAMGWYRQAPGKERELVASITSGGRTYADSVKGRFTISRDNAKNTVYLQMNSLKPEDTAVYYCNTAHSKAWQYDYWGQGTQVTVSS meas_value="high polyreactivity"
sequence_content=QVQLVESGGGLVQAGGSLRLSCAASGSIFPPYAMGWYRQAPGKERELVATITIRGGSTYYADSVKGRFTISRDNAKNTVYLQMNSLKREDTAVYYCAADYTKYYRRYYYWGQGTQVTVSS meas_value="high polyreactivity"

====

# test protocol: yeast display, Sf9 membrane polyspecificity reagent, FACS + sequencing; frameworks hold sequencing errors
attribute measured: polyreactivity (PSR sort gate)

sequence_content=QVQLVESGGGLVQAGGSLRLICAASGSIFTKYTMGWSRQAPGKERELVAAITLRGTSTYYADSVKGRFTISRDNAMNTVYLQMNSLIPEDTAFYYCNKLYSWVVAYDYWGQGTQVTVSS meas_value="high polyreactivity"
sequence_content=QVQLVESGGGLVQAGGSLRLSCAASGSTFDVYAMGWYRQAPGKERELVAGISSRGGRTYYADSVKGRFTISRDNAKNTVYLQMNSLKPEDTAVYYCAARYKGNPDRYGYWGQGTQVTVSS meas_value="high polyreactivity"
sequence_content=QVHLVESGGCLVQSGGSLRLSCAASGSTFPSYAKGWYRQAPGKERELVAAINSGGGTNYADSVKGRFTISRDNAKNTVYLQMNILKPEDTAVYYCAADVWKLYAYWGQGTQVTVSS meas_value="low polyreactivity"
sequence_content=QVQLVESGGGLVQAGGSLRLSCAASGRIFHGYAMGWYRQAPGKERELVAAISATGGSTYYADSVKGRFTISRDNAKNTVYLQMNSLKPEDTAVYYCARTNFYRSYDPGGRFYNYDYWGQGTQVTVSS meas_value="low polyreactivity"
sequence_content=QVQLVESGGGLVQAGGSLRLSCAASGNTFWFYGMGWYRQAPGKERELVAAITSGGSTDYADSVKGRFTISRDNAKNTVYLLLNSLKPEDTAVYYCAAEPVAYYGSSYGYWGQGTQVTVSS meas_value="low polyreactivity"
sequence_content=QVQLVESGGGLVQAGGSLRLSCAASGRIFVYYAMGWYRPAPGKERELVAAITSGGSTYYADSVKGRFTISRDNANNTVYLQMNSLKPEDTAVYYSAAYRYYYLVYQQHREYGYWGQGSQVTVSS meas_value="high polyreactivity"
sequence_content=QVQLVESAGGLVQAGGSLRLSCAASGIIFEYYTRGWYRQAPGKERELVASITYDGDSTYYADSVKGRFTISRDNAKNTVYLQMNSLKPEDTAVYYCAADYYYVYSSFGHYYWGQGTQVTVSS meas_value="low polyreactivity"
sequence_content=QVQLVESGGGLVQAGGSLRLSCAASGIIFYRYAMGWYRQAPGKEREFVAAISWSGGSTTYADSVKGRFTISRDNAKNTVYLQMNSLKPEDTAVYYCNADRIYWSLWGPAYDYWGQGTQVTVSS meas_value="high polyreactivity"
sequence_content=QVQLVESGGGLVQAGGSLRLSCAASGGTSAVYAMGWYRQAPGKERELVAAISSDGSTNYADSVKGRFTISRDNAKNTVYLQMNSLKPEDTAVYYCAVDFSTYEWSGHITRASGSYDYWGQGTQVTVSS meas_value="low polyreactivity"
sequence_content=QVQHVESGGGLVQAGGSLRLSCAAYGRTFGYYAMGWNRQAPGKDRELVAAITSGGRTNYADSVKGRFTISRDNAKNTVYLQMISQKPEDTAVYYCAATWNWPLSERKFNYWGQGTQVTVSS meas_value="low polyreactivity"
sequence_content=QVQLVESGGGLVQAGGSLRLSCAASGRTFVKNTMGWYRQATGKERELVAAISSSGGSTYYADSVKGRFTISRHNAKNTVYLQMNSLNPEDTAVYFCAVSYPYKHAGGWYAYNYWGQGTQVTVSS meas_value="high polyreactivity"

====

# test protocol: yeast display, Sf9 membrane polyspecificity reagent, FACS + sequencing; frameworks hold sequencing errors
attribute measured: polyreactivity (PSR sort gate)

sequence_content=QVQLVETGGGLVQAGRSLRLSCAASGSNFRSYARGWYRQAPGKERELVAAITSSSGSTDYADSVKGRFTSSRDNAKNTVYLQMNSLKPEDTAVYYCNAPYWKSRFRAYYHWGQGTQVTVSS attribute_measured="polyreactivity (PSR sort gate)" meas_value="high polyreactivity"
sequence_content=QVQLVASGGGLVQAGGSLRLSCAASGSTFDIYAMGWYRQAPGKERELVAAISVSDVYTYYADSVKGRFTISRDNAKNTVYLQMNSLKPEDTAVYYCAAETPTHDEWGQGTQVTVSS attribute_measured="polyreactivity (PSR sort gate)" meas_value="high polyreactivity"
sequence_content=QVQLVESGGGLVQAGGSLRVSCAASGFTFTRYTMGWYRQAPGKEWELVAAITRSGGNTYYADSVKGRFTISRDNAKNTVYLQMNSLKPEDTAVYYCAARQVSGIGPYDYWGQGTQVTVSS attribute_measured="polyreactivity (PSR sort gate)" meas_value="high polyreactivity"
sequence_content=QVQLVESAGGLVLAGGSLRLSCAASGRIFARNAMGWYRQAAGKEREFVAGITWSGSSTYYADSVKARFTISRDNAKNTVYLQMNSLKPEDTAVYYCAVDNYVGSLRIDHDYWGLGTQVTVSS attribute_measured="polyreactivity (PSR sort gate)" meas_value="low polyreactivity"
sequence_content=QVQLVESGGGLVQAGGSLRLSCSASGSTFGQYAMGWYRHAPGKERELVAAISRGGGSTYYADSVKGRFTISRDNAKYTVYLQMNSLKPEDTAVYYCNALSARSYYWGQGTQVTVSS attribute_measured="polyreactivity (PSR sort gate)" meas_value="high polyreactivity"
sequence_content=QVQLVESGGGLVQAGGSLRLSCAASGRIFPKYAMGWYRQAPGKERELVAAISRRGSSTYYADSVKGRFTISRDNAKNTVYLQMTSLKPEDTAVYYCATDARDGHDYWGQGTQVTVSS attribute_measured="polyreactivity (PSR sort gate)" meas_value="high polyreactivity"
sequence_content=QDQLVDSGGGLVQAGGSLRLSCAASGSTFDANAMGWYRQAPGKERELVATISDGGSTNYADSVKGRFTISRDNAKNTVYLQMNSLKPEDTAVYYCAAVKLFLGLGYVYWGQGTQVTVSS attribute_measured="polyreactivity (PSR sort gate)" meas_value="low polyreactivity"
sequence_content=QVQLVESGGGLVQAGGSLRLSCAASGYTFVLNAMGWYRQAPGKEREFVAAITWSGGSTYYADSVKGRFTISRDNAKNTVYLQMNSLNPEDTAVYYCAATAHYFGEYDYWGQGTQVTVSS attribute_measured="polyreactivity (PSR sort gate)" meas_value="low polyreactivity"
sequence_content=QVQLEESGGGVVQAGGSLRLSCAASGRIFNYYTMGWYRQATGKERELVARINSSGSTNLRRLCEGALHNFTRQCEVYRLFTDEQPETGRYRVYYCNADTKRSSREYEYWGQGTQVTVSS attribute_measured="polyreactivity (PSR sort gate)" meas_value="low polyreactivity"
sequence_content=QVQLVESGGGLVQAGGSLRLSCAASGIIFIYYGMGWYRQAPGKERELVAAIARSGGRTYYADSVKGRFTISRHNAKNTVYLQMHSLKPEETAVYYCATTYTPTGFDYWGQGPQVTVSS attribute_measured="polyreactivity (PSR sort gate)" meas_value="high polyreactivity"
sequence_content=QLQLVESGGGLVQAGGSLRLSCAASGLTIWRYAKGCYRQAPGKEREFVATISQNGGRTYYADSVKGRFTISRDNAKNSVYLQMNSLKPEDTAVYYCAADDWRWGYDYWVQGTQVTVSS attribute_measured="polyreactivity (PSR sort gate)" meas_value="high polyreactivity"
sequence_content=QVQLVESGAGLVQAGGSLRLSCAASGIIFPFYAMGWYRQAPGKEMELVAAITSDGNTNYADSVKGRFTFSRDNAKNTVYLQMNSLKPVDTAVYYCNAETQYAVLSWHSTRHDYWGQGTQVTLSS attribute_measured="polyreactivity (PSR sort gate)" meas_value="low polyreactivity"
sequence_content=QFQLVESGGGLVQAGGSLRLSCAASGFTFYRNAMGWYRQAPGKERELVAAITSTGSTNYADSVKGRFTISRDNAKNTVYLQMNSLKPEDTAVYYCNKRRFGRQGMDYWGQGTQVTVSS attribute_measured="polyreactivity (PSR sort gate)" meas_value="low polyreactivity"
sequence_content=QVQLGESGGGLVQAGGSLRLSCAASGSIFIGNAMGWYRQAPGKERELVAAITGRGGRTYYADSVKGRFTISRDNAKNTVYLQMNSLKTEDTAVYYCNAVARQFLYGYWGEGTQVTVSS attribute_measured="polyreactivity (PSR sort gate)" meas_value="high polyreactivity"
sequence_content=QVQLVESGGGLVQAGGSHRLSCAASGSIFNLYTMGWYIQAPGKERELVAAIRWSGGRTYYADSVKGRFTISRDNAKNTVYLQMNSLKAEDTAVYYCAVRRVVARYDHWGQGTQVTVSS attribute_measured="polyreactivity (PSR sort gate)" meas_value="low polyreactivity"
sequence_content=QVQFVESGGGLVQAGGSLRLSCAASGSTFQGYAMGWYRQAPGKERELVAAISRSGGRTYYADSVKGRFTISRDNAKNTVYLQMNSLKPEDTAVYYCAKYYWAPTGAHGGYGYWGQGTQVTVSS attribute_measured="polyreactivity (PSR sort gate)" meas_value="low polyreactivity"
sequence_content=QVQLVESGGGLVQAGGSLRLSCAASGSIFGPYAMGWYRQAPGKERELVAGITRSVGSTYYADSVKGRFTISRDNAKNTVFLQMNSLKPEDTAVYYCNAKWLYSRWAGYDYWGQGTQVTVSS attribute_measured="polyreactivity (PSR sort gate)" meas_value="low polyreactivity"
sequence_content=QDQLVESGGGLVQAGGSLRLSCAASGRIFDTNAMGRYRQAPGKERELVATNTRSAGRTYYADSVKGRFTISRDNAKIKVFLQMNILKPEDTAVYFCNADWGPTYEIYDSWGQGTQVTVSS attribute_measured="polyreactivity (PSR sort gate)" meas_value="low polyreactivity"
sequence_content=QVHLVESGGGLVQAGGSLRLSCAATGSTFAHNDMGWYRQAPGKERELVAAITWGDSSTYYADSVKGRFTISRDNAKNTVYLQMNSLKPEDTAVYYCAKDYGFTGYGYWGQGTQVTVSS attribute_measured="polyreactivity (PSR sort gate)" meas_value="low polyreactivity"
sequence_content=HVQLVESGGGLVQAGGSLRLSCAASGSTFTRYVMGWYRQAPGKERELVAAISSGVSTYYADSVKGRFTISRDNAKNSVYLQMNSLKPEDTAVYYCDANRYRAREYKYWGQGTQVTVSS attribute_measured="polyreactivity (PSR sort gate)" meas_value="high polyreactivity"
sequence_content=QVQLVESGGGLVQAGGSLRLSCAASGFIFSVYAMGWYRQAPGKERELVAVISTSGGRTYYADSVKGRFTISRDNAKNTVYLQMNSLKPEDTAVYYCAADGFQYTLGNYYWGQGTQVTVSS attribute_measured="polyreactivity (PSR sort gate)" meas_value="high polyreactivity"

Cited source: the nanobody polyreactivity screen of Harvey et al. (2022)
